Test system: Leishmania donovani
Assay: Antileishmanial activity against Leishmania donovani MHOM/IN/80/DD8 promastigote forms harboring luciferase gene at 25 uM after 72 hrs by Steady-Glo reagent based luminescence assay relative to control
Format: functional
Settings: MHOM/IN/80/DD8, 72 h, read-out: GI
Overview of recorded inhibition of growth at 25 µM for various molecules
Form entry: value (%) — number only.

(Q) Consider the molecule CC1(C)CC(=O)c2c(nc3c(c(-c4c[nH]c5ccccc45)nn3-c3ccc(F)cc3)c2-c2ccc(Cl)cc2)C1 and give its measured inhibition of growth at 25 µM.
(A) 61.3

====

Test system: Leishmania donovani
Assay: Antileishmanial activity against Leishmania donovani MHOM/IN/80/DD8 promastigote forms harboring luciferase gene at 25 uM after 72 hrs by Steady-Glo reagent based luminescence assay relative to control
Format: functional
Settings: MHOM/IN/80/DD8, 72 h, read-out: GI
Classify as follows. Reported inhibition of growth at 25 µM greater than or equal to 50%: 1.0. Reported inhibition of growth at 25 µM below: 0.0.

Field: example entries. Status: answers known.
(Q) Does the compound COc1ccc(C2C3=C(CC(C)(C)CC3=O)Nc3c2c(-c2c[nH]c4ccccc24)nn3-c2ccc(Cl)c(Cl)c2)cc1OC (stereo unspecified) have recorded inhibition of growth at 25 µM that is 50% or more?
(A) 1.0

(Q) Try O=C1C2=C(Nc3c(c(-c4c[nH]c5ccccc45)nn3-c3ccc(Cl)cc3)C2c2cccs2)c2ccccc21 (stereo unspecified) next.
(A) 1.0

(Q) One more compound: COc1ccc(OC)c(-c2c3c(nc4c2c(-c2c[nH]c5ccccc25)nn4-c2ccc(Cl)c(Cl)c2)CC(C)(C)CC3=O)c1
(A) 0.0

(Q) Try CC1(C)CC(=O)c2c(nc3c(c(-c4c[nH]c5ccccc45)nn3-c3ccc(Cl)cc3)c2-c2ccc(Cl)cc2Cl)C1 next.
(A) 0.0

Now turn to the next compound.
(Q) Item COc1ccc(C2C3=C(CCC3=O)Nc3c2c(-c2c[nH]c4ccccc24)nn3-c2ccc(Cl)c(Cl)c2)cc1OC (stereo unspecified) with inhibition of growth at 25 µM of 50% or above?
(A) 1.0

Cited source for all entries: ChEMBL document CHEMBL3992522
